measurementDescription: Reverse-phase thin-layer chromatographic lipophilicity (RF, RM0)
Type: physicochemical
conditionDetails: RP-18 silica; V = 70%MeOH/25%H2O/5%HCl
quantityKind: RF, Methanol/Water/Hydrochloric acid (conc.), mobile phase V

>>> measvalue("Clc1ccc2c(Nc3cccc4c(NCCC56CC7CC(CC(C7)C5)C6)cccc34)ccnc2c1 [Compound 19]")
0.3
>>> measvalue("CC(CCNCCC12CC3CC(CC(C3)C1)C2)Nc1ccnc2cc(Cl)ccc12 (centres unmarked) [Compound 14]")
0.34
>>> measvalue("Clc1ccc2c(NCCCCNCC34CC5CC(CC(C5)C3)C4)ccnc2c1 [Compound 3]")
0.44
>>> measvalue("Clc1ccc2c(NCCCN3CCN(CCCNCC45CC6CC(CC(C6)C4)C5)CC3)ccnc2c1 [Compound 22]")
0.5
>>> measvalue("Clc1ccc2c(NCCCCCCNCC34CC5CC(CC(C5)C3)C4)ccnc2c1 [Compound 4]")
0.4
>>> measvalue("CC(CCNCC12CC3CC(CC(C3)C1)C2)Nc1ccnc2cc(C(F)(F)F)ccc12 (centres unmarked) [Compound 13]")
0.42
>>> measvalue("Clc1ccc2c(NCCN(CCC34CC5CC(CC(C5)C3)C4)CCC34CC5CC(CC(C5)C3)C4)ccnc2c1 [Compound 9]")
0.05
>>> measvalue("CC(CCNCCC12CC3CC(CC(C3)C1)C2)Nc1ccnc2ccccc12 (centres unmarked) [Compound 16]")
0.42

The values you see were collected from paper PMC9229919.
